molecular target: recombinant human arginase 2 (hARG2) (Homo sapiens); assay: Human arginase inhibition assay (colorimetric urea detection), arginase 2; settings: IC50 class; hydrochloride salts; 1 h at 37° C., pH 7.4, 20 mM L-arginine, 200 μM MnCl2; read-out: Activity Class (ARG II)
Sequence (P78540 23-354): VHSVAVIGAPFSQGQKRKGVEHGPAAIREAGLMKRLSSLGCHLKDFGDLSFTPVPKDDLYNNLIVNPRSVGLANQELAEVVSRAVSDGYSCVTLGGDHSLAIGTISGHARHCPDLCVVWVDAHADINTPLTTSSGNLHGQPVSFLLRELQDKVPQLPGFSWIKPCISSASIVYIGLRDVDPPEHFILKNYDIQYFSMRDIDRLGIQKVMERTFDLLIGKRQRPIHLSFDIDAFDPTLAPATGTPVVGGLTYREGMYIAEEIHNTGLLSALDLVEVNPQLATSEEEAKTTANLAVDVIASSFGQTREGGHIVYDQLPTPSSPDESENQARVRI
pIC50: −log10 of the molar value. Structures can show the parent of a compound that is named as a salt.
measurement-label: pIC50

IN: Report measured pIC50 on recombinant human arginase 2 (hARG2) (Homo sapiens); entry: N[C@@H](CCC(=O)O)C(=O)NC[C@@H]1CC[C@@H](CCB(O)O)C[C@]1(N)C(=O)O [Example 30, dihydrochloride]
OUT: < 6.52

IN: Report measured pIC50 on recombinant human arginase 2 (hARG2) (Homo sapiens); entry: CSCC[C@H](N)C(=O)NC[C@@H]1CC[C@@H](CCB(O)O)C[C@]1(N)C(=O)O [Example 17, dihydrochloride]
OUT: 6.52 to 6.70

IN: Report measured pIC50 on recombinant human arginase 2 (hARG2) (Homo sapiens); entry: COC(=O)[C@@]1(N)C[C@H](CCB(O)O)CC[C@H]1CNC(=O)[C@@H](N)C(C)C [Example 32, dihydrochloride]
OUT: < 6.52

IN: Report measured pIC50 on recombinant human arginase 2 (hARG2) (Homo sapiens); entry: N=C(N)NCCC[C@H](N)C(=O)NC[C@@H]1CC[C@@H](CCB(O)O)C[C@]1(N)C(=O)O [Example 13, trihydrochloride]
OUT: < 6.52

IN: Report measured pIC50 on recombinant human arginase 2 (hARG2) (Homo sapiens); entry: CCN[C@]1(C(=O)O)C[C@H](CCB(O)O)CC[C@H]1CNC(=O)[C@H](C)N [Example 35, dihydrochloride]
OUT: < 6.52

IN: Report measured pIC50 on recombinant human arginase 2 (hARG2) (Homo sapiens); entry: CNCC(=O)NC[C@@H]1CC[C@@H](CCB(O)O)C[C@]1(N)C(=O)O [Example 31, dihydrochloride]
OUT: < 6.52

IN: Report measured pIC50 on recombinant human arginase 2 (hARG2) (Homo sapiens); entry: Cn1cc(C[C@@H](N)C(=O)NC[C@@H]2CC[C@@H](CCB(O)O)C[C@]2(N)C(=O)O)c2ccccc21 [Example 26, dihydrochloride]
OUT: < 6.52

IN: Report measured pIC50 on recombinant human arginase 2 (hARG2) (Homo sapiens); entry: C[C@H](N)C(=O)N(C)C[C@@H]1CC[C@@H](CCB(O)O)C[C@]1(N)C(=O)O [Example 24, dihydrochloride]
OUT: < 6.52

IN: Report measured pIC50 on recombinant human arginase 2 (hARG2) (Homo sapiens); entry: C[C@@H](O)[C@H](N)C(=O)NC[C@@H]1CC[C@@H](CCB(O)O)C[C@]1(N)C(=O)O [Example 19, dihydrochloride]
OUT: < 6.52

IN: Report measured pIC50 on recombinant human arginase 2 (hARG2) (Homo sapiens); entry: NC(=O)C[C@H](N)C(=O)NC[C@@H]1CC[C@@H](CCB(O)O)C[C@]1(N)C(=O)O [Example 15, dihydrochloride]
OUT: < 6.52

IN: Report measured pIC50 on recombinant human arginase 2 (hARG2) (Homo sapiens); entry: N[C@H](C(=O)NC[C@@H]1CC[C@@H](CCB(O)O)C[C@]1(N)C(=O)O)C1CCCC1 [Example 11, dihydrochloride]
OUT: 6.70 to 7.00

IN: Report measured pIC50 on recombinant human arginase 2 (hARG2) (Homo sapiens); entry: N[C@]1(C(=O)O)C[C@H](CCB(O)O)CC[C@H]1CNC(=O)[C@@H]1CCCN1 [Example 5, dihydrochloride]
OUT: < 6.52

IN: Report measured pIC50 on recombinant human arginase 2 (hARG2) (Homo sapiens); entry: CC(C)[C@H](N)C(=O)N(C)C[C@@H]1CC[C@@H](CCB(O)O)C[C@]1(N)C(=O)O [Example 25, dihydrochloride]
OUT: < 6.52

====

molecular target: intracellular arginase in macrophages isolated from murine bone marrow (BMDM) (Mus musculus); construct: endogenous in cells; test: Cell-based assay: intracellular arginase in bone marrow derived macrophages (BMDM), urea in culture medium; conditions: IC50 class; M2-polarised murine BMDM (M-CSF, TGF-β, IL-4), urea in medium after 24 hours
Sequence (Q61176 whole entry): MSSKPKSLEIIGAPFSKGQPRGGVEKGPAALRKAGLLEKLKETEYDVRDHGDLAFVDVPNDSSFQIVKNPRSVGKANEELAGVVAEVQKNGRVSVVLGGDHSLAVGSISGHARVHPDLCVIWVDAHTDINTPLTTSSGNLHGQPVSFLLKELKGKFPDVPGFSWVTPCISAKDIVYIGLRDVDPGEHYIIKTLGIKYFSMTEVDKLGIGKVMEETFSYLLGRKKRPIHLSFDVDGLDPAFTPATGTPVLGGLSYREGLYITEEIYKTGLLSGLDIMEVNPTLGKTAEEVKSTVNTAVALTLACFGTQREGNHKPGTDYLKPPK
Structures can show the parent of a compound that is named as a salt.
Task for the reader: assign each of the following compounds its reported IC50.

IN: Input CSCC[C@H](N)C(=O)NC[C@@H]1CC[C@@H](CCB(O)O)C[C@]1(N)C(=O)O [Example 17, dihydrochloride] , output reported IC50.
OUT: 10 to 100 µM

IN: Input CC(C)(C)[C@H](N)C(=O)NC[C@@H]1CC[C@@H](CCB(O)O)C[C@]1(N)C(=O)O [Example 12, dihydrochloride] , output reported IC50.
OUT: > 100 µM

IN: Input CC(C)C[C@H](N)C(=O)NC[C@@H]1CC[C@@H](CCB(O)O)C[C@]1(N)C(=O)O [Example 6, dihydrochloride] , output reported IC50.
OUT: 10 to 100 µM

IN: Input NCCCC[C@H](N)C(=O)NC[C@@H]1CC[C@@H](CCB(O)O)C[C@]1(N)C(=O)O [Example 9, trihydrochloride] , output reported IC50.
OUT: > 100 µM

IN: Input CC[C@H](C)[C@H](N)C(=O)NC[C@@H]1CC[C@@H](CCB(O)O)C[C@]1(N)C(=O)O [Example 10, dihydrochloride] , output reported IC50.
OUT: > 100 µM

IN: Input N[C@]1(C(=O)O)C[C@H](CCB(O)O)CC[C@H]1CNC(=O)[C@@H]1CCCN1 [Example 5, dihydrochloride] , output reported IC50.
OUT: > 100 µM

IN: Input N[C@@H](Cc1ccccc1)C(=O)NC[C@@H]1CC[C@@H](CCB(O)O)C[C@]1(N)C(=O)O [Example 3, dihydrochloride] , output reported IC50.
OUT: > 100 µM

IN: Input CC(C)[C@H](N)C(=O)NC[C@@H]1CC[C@@H](CCB(O)O)C[C@]1(N)C(=O)O [Example 2, dihydrochloride] , output reported IC50.
OUT: 10 to 100 µM

IN: Input N=C(N)NCCC[C@H](N)C(=O)NC[C@@H]1CC[C@@H](CCB(O)O)C[C@]1(N)C(=O)O [Example 13, trihydrochloride] , output reported IC50.
OUT: > 100 µM

IN: Input NCC(=O)NC[C@@H]1CC[C@@H](CCB(O)O)C[C@]1(N)C(=O)O [Example 4, dihydrochloride] , output reported IC50.
OUT: > 100 µM

====

molecular target: recombinant human arginase 1 (hARG1) (Homo sapiens); assay: Human arginase inhibition assay (colorimetric urea detection), arginase 1; details: IC50 class; hydrochloride salts; 1 h at 37° C., pH 7.4, 10 mM L-arginine, 200 μM MnCl2; read-out: Activity Class (ARG I)
Sequence (P05089 whole entry): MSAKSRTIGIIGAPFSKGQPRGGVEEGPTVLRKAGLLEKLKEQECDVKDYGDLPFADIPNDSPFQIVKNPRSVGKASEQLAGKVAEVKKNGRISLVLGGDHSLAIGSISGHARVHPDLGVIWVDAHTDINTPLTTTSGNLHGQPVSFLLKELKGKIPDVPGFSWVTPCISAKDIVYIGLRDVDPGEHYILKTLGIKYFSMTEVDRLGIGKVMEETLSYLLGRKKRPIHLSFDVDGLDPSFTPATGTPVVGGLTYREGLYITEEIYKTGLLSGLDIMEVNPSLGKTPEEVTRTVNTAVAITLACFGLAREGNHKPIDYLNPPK
Structures can show the parent of a compound that is named as a salt.
measurement-label: IC50

IN: Input NCC(=O)NC[C@@H]1CC[C@@H](CCB(O)O)C[C@]1(N)C(=O)O [Example 4, dihydrochloride] , output reported IC50.
OUT: 1 to 99 nM

IN: Input N[C@]1(C(=O)O)C[C@H](CCB(O)O)CC[C@H]1CNC(=O)[C@@H]1CCCN1 [Example 5, dihydrochloride] , output reported IC50.
OUT: 1 to 99 nM

IN: Input N[C@@H](CC(=O)O)C(=O)NC[C@@H]1CC[C@@H](CCB(O)O)C[C@]1(N)C(=O)O [Example 29, dihydrochloride] , output reported IC50.
OUT: > 300 nM

IN: Input CCN[C@]1(C(=O)O)C[C@H](CCB(O)O)CC[C@H]1CNC(=O)[C@H](C)N [Example 35, dihydrochloride] , output reported IC50.
OUT: > 300 nM

IN: Input CC(C)[C@@](C)(N)C(=O)NC[C@@H]1CC[C@@H](CCB(O)O)C[C@]1(N)C(=O)O [Example 21, dihydrochloride] , output reported IC50.
OUT: 200 to 299 nM

IN: Input CC[C@H](C)[C@H](N)C(=O)NC[C@@H]1CC[C@@H](CCB(O)O)C[C@]1(N)C(=O)O [Example 10, dihydrochloride] , output reported IC50.
OUT: 1 to 99 nM

IN: Input CC(C)[C@H](N)C(=O)NC[C@H]1CC[C@@H](CCB(O)O)C[C@]1(N)C(=O)O [Example 34, dihydrochloride] , output reported IC50.
OUT: > 300 nM

IN: Input COC(=O)[C@@]1(N)C[C@H](CCB(O)O)CC[C@H]1CNC(=O)[C@@H](N)C(C)C [Example 32, dihydrochloride] , output reported IC50.
OUT: > 300 nM

IN: Input C[C@@H](O)[C@H](N)C(=O)NC[C@@H]1CC[C@@H](CCB(O)O)C[C@]1(N)C(=O)O [Example 19, dihydrochloride] , output reported IC50.
OUT: 100 to 199 nM

IN: Input N[C@H](C(=O)NC[C@@H]1CC[C@@H](CCB(O)O)C[C@]1(N)C(=O)O)C1CCCC1 [Example 11, dihydrochloride] , output reported IC50.
OUT: 1 to 99 nM
